# experiment-summary: Cytotoxicity, CCK-8, hACE2-HEK293T cells
# run-parameters: human
observable: CC50 (µM)
API: value field is a number in µM; no unit string.

Prompt line: Returns the measured CC50 for the input compound. Input: C[C@@H]1O[C@@H](O[C@H]2[C@H](OC(=O)[C@]34CCC(C)(C)C[C@H]3C3=CC[C@@H]5[C@@]6(C)C[C@H](O)[C@H](O[C@@H]7O[C@H](CO)[C@@H](O)[C@H](O)[C@H]7O)C(CO)(CO)[C@@H]6CC[C@@]5(C)[C@]3(C)C[C@H]4O)OC[C@H](O)[C@@H]2O)[C@H](O)[C@H](O)[C@H]1O[C@@H]1OC[C@@H](O)[C@H](O)[C@H]1O
Response line: 35.5

====

# Tested on: SARS-CoV-2-S pseudovirus
# experiment-summary: microbe, parasite or virus in culture
# Type: cell-based
# run-parameters: Pseudovirus
IC50 by entry:
API: value field is a number in µM; no unit string.

Prompt line: Returns the measured IC50 for the input compound. Input: C[C@@H]1O[C@@H](O[C@H]2[C@H](OC(=O)[C@]34CCC(C)(C)C[C@H]3C3=CC[C@@H]5[C@@]6(C)C[C@H](O)[C@H](O[C@@H]7O[C@H](CO)[C@@H](O)[C@H](O)[C@H]7O)C(CO)(CO)[C@@H]6CC[C@@]5(C)[C@]3(C)C[C@H]4O)OC[C@H](O)[C@@H]2O)[C@H](O)[C@H](O)[C@H]1O[C@@H]1OC[C@@H](O)[C@H](O)[C@H]1O
Response line: 1.38

Prompt line: How about Oc1cc(O)c2cc(O)c(-c3cc(O)c(O)c(O)c3)[o+]c2c1 ?
Response line: 45.4

====

# assayed-system: SARS-CoV-2 3CL^pro (Severe acute respiratory syndrome coronavirus 2)
observable: pKd
Note on units: pKd is unitless, being -log10 of a concentration expressed in mol/L.

Prompt line: Notebook entry, SARS-CoV-2 3CL^pro (Severe acute respiratory syndrome coronavirus 2) assay: pKd of Oc1cc(O)c2cc(O)c(-c3cc(O)c(O)c(O)c3)[o+]c2c1 [Delphinidin] = ?
Response line: 4.61

Data origin, for the record: paper PMC12165925
